Target: Serine/threonine-protein phosphatase 5 (Homo sapiens)
Assay: blocking PP5 removal of histone phosphate – biochemical, radiolabel, single concentration, PP5 inhibitor project, late-stage follow-up (AID 463223)
Settings: purified PP5c, 33P-phosphohistone radiolabel assay, scintillation counting, 10 min; at 10 µM; hits give high values
measurementLabel: inhibition (%)
Give your result in % as a bare value.

// worked examples, inhibition included
| compound | systemTested | inhibition (%) |
| --- | --- | --- |
| Cc1ccc(-n2nc(C(=O)O)cc2-c2ccc(Cl)cc2)cc1 | Serine/threonine-protein phosphatase 5 (Homo sapiens) | 1.91 |
| Cc1ccc(C(=O)NNc2cc(N3CCCC3)nc(N3CCCC3)n2)cc1 | Serine/threonine-protein phosphatase 5 (Homo sapiens) | 0.83 |
| CN1CCN(C(c2ccccn2)c2cc(Cl)c3cccnc3c2O)CC1 (centres undefined) | Serine/threonine-protein phosphatase 5 (Homo sapiens) | -2.91 |

Under Serine/threonine-protein phosphatase 5 (Homo sapiens): report inhibition of Nc1cc2nsnc2cc1Br .
1.86

State the measured inhibition (Serine/threonine-protein phosphatase 5 (Homo sapiens)) of COc1cnc(-c2ccccn2)nc1Sc1ccccc1Cl
0.33

Specify the recorded inhibition for CC(=O)C(C(C)=O)C1(O)C(=O)c2ccccc2C1=O , system: Serine/threonine-protein phosphatase 5 (Homo sapiens).
2.52

Lab note: Serine/threonine-protein phosphatase 5 (Homo sapiens) assay, enter inhibition for c1ccc(Nc2nc(-c3ccccn3)cs2)cc1 here
-1.08

State inhibition on Serine/threonine-protein phosphatase 5 (Homo sapiens). Entry: Oc1cccc(/C=N/Nc2cc(N3CCCC3)nc(N3CCCC3)n2)c1
1.73

Give the observed inhibition of COc1cnc(-c2ccccn2)nc1Sc1ccc(C)cc1 for Serine/threonine-protein phosphatase 5 (Homo sapiens).
-1.26

State recorded inhibition with Serine/threonine-protein phosphatase 5 (Homo sapiens), entry O=C(O)c1cc(-c2ccc(Cl)c(Cl)c2)n(-c2ccc(F)cc2)n1 , no comment.
-0.91

* * *

This section presents compounds with their documented inhibition values.
Molecular target: Serine/threonine-protein phosphatase 5 (Homo sapiens)
Assay: blocking PP5 removal of histone phosphate – biochemical, radiolabel, single concentration, PP5 inhibitor project, late-stage follow-up (AID 463223)
Conditions: purified PP5c, 33P-phosphohistone radiolabel assay, scintillation counting, 10 min; at 10 µM; hits give high values
Record the value in %, omitting the unit from your answer.

Below: 5 compounds and their reported inhibition.
| compound | systemTested | unitsLabel | inhibition |
| --- | --- | --- | --- |
| COc1ccc(Cn2c(N)c(C(=O)NCc3ccco3)c3nc4ccccc4nc32)cc1OC | Serine/threonine-protein phosphatase 5 (Homo sapiens) | % | 0.41 |
| CCCCn1c(NC(=O)c2ccco2)c(C(=O)OCC)c2nc3ccccc3nc21 | Serine/threonine-protein phosphatase 5 (Homo sapiens) | % | 2.8 |
| N#Cc1c(-c2ccc(Cl)cc2)cc(-c2cccs2)nc1SCC(=O)O | Serine/threonine-protein phosphatase 5 (Homo sapiens) | % | 12.1 |
| CCCN(CC1CC1)c1nc(N)c2c(N)nc(OC)cc2c1C#N | Serine/threonine-protein phosphatase 5 (Homo sapiens) | % | 0.96 |
| COc1cnc(-c2ccccn2)nc1Oc1cccc(C(F)(F)F)c1 | Serine/threonine-protein phosphatase 5 (Homo sapiens) | % | -2.17 |

Kindly review the next compound as well.
Output measured inhibition for this item: COc1ccc2c(Cl)c(C(=O)N/N=C/c3ccc4c(c3)OCO4)sc2c1
-0.4

* * *

Target: Serine/threonine-protein phosphatase 5 (Homo sapiens) (UniProt P53041)
Sequence (P53041 whole entry, looked up): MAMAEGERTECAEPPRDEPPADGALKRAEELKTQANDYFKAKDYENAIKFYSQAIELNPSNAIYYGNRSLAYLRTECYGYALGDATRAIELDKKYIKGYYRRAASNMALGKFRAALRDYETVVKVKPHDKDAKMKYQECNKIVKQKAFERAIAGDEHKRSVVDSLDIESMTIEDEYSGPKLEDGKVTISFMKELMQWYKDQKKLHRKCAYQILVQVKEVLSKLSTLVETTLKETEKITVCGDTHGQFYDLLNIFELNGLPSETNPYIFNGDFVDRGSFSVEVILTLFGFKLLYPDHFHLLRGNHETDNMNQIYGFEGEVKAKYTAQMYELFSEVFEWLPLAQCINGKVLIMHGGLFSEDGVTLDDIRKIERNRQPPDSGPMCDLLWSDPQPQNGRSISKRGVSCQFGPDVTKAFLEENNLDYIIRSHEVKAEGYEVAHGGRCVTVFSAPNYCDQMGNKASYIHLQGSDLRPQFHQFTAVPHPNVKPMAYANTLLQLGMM
Test: blocking PP5 removal of histone phosphate – biochemical, radiolabel, single concentration, PP5 inhibitor project, late-stage follow-up (AID 463223)
Conditions: purified PP5c, 33P-phosphohistone radiolabel assay, scintillation counting, 10 min; at 10 µM; hits give high values
The source made the active and inactive calls. The rule behind the calls is not given here.
measurementLabel: inhibition

Field: example entries. Status: answers known.
| molecule | inhibition |
| --- | --- |
| CCOC(=O)c1cnc(-n2nc(C)cc2C)nc1NC(C)c1ccccc1 (stereo unspecified) | 0.17% (inactive) |
| COc1ccc(Sc2nc(-c3ccccn3)ncc2OC)cc1 | 1.12% (inactive) |
| COc1cnc(-c2ccccn2)nc1Sc1ccc(F)cc1 | -3.12% (inactive) |
| COc1ccc(CN2C(=O)Cc3c2nc(N)c2c(N)nc(N4CCCCC4)c(C#N)c32)cc1 | -2.57% (inactive) |
| CC(C)(CS(=O)(=O)[O-])NC(=O)CC[N+](C)(C)CCO | 2.71% (inactive) |
| CCOC(=O)c1sc(N2C(=O)C(O)=C(C(=O)c3ccco3)C2c2cccc([N+](=O)[O-])c2)nc1C (stereo unspecified) | 9.04% (inactive) |
| COc1cnc(-c2ccccn2)nc1Oc1cccc(Cl)c1 | -1.35% (inactive) |
| COc1cnc(-c2ccccn2)nc1Sc1ccc(Cl)cc1 | -3.05% (inactive) |
| N#Cc1c(N2CCCC(O)C2)nc(N)c2c(N)nc3c(c12)CC(=O)N3C12CC3CC(CC(C3)C1)C2 (stereo unspecified) | -0.93% (inactive) |
| O=C(O)c1cc(-c2ccc(Cl)cc2)n(-c2cccc(Cl)c2)n1 | 2.43% (inactive) |

With those in mind, consider the next molecule.
Give inhibition for COc1ccc(Cl)cc1C(=O)Nc1cccc(-c2ccc3nncn3n2)c1
-1.12% (inactive)

* * *

Target: Serine/threonine-protein phosphatase 5 (Homo sapiens)
Assay: blocking PP5 removal of histone phosphate – biochemical, radiolabel, single concentration, PP5 inhibitor project, late-stage follow-up (AID 463223)
Details: purified PP5c, 33P-phosphohistone radiolabel assay, scintillation counting, 10 min; at 10 µM; hits give high values
measurementLabel: inhibition (%)
Give just the number in %; leave the unit off.

Example entries and their recorded answers appear below.
| compound | unitsLabel | assayResult |
| --- | --- | --- |
| Nc1nc(-c2ccccn2)nc(N)c1Cc1ccc(Cl)cc1Cl | % | -1.92 |
| COc1cc(Br)c(C(=O)c2nccc3cc(OC)c(OC)cc23)cc1OC | % | 1.9 |
| O=c1[nH]c(Nc2ccccc2)cc2ccccc12 | % | 0.47 |

State the measured inhibition (Serine/threonine-protein phosphatase 5 (Homo sapiens)) of Clc1ccc(-n2nnnc2-c2cnc(-c3ccccn3)nc2-c2cccs2)cc1
-0.04

# assay system Serine/threonine-protein phosphatase 5 (Homo sapiens): give inhibition of O=C(O)C1C2CCC(O2)C1C(=O)NC1CCCCC1 (centres undefined)
45.9

State inhibition (Serine/threonine-protein phosphatase 5 (Homo sapiens)) of O=C(NC1(O)C(=O)c2ccccc2C1=O)c1ccc(C(F)(F)F)cc1 .
-0.52

* * *

Biological target: Serine/threonine-protein phosphatase 5 (Homo sapiens)
Assay: blocking PP5 removal of histone phosphate – biochemical, radiolabel, single concentration, PP5 inhibitor project, late-stage follow-up (AID 463223)
Conditions: purified PP5c, 33P-phosphohistone radiolabel assay, scintillation counting, 10 min; at 10 µM
Calls of active or inactive are those of the source. No rule for the calls is given here.
The categories you may choose from are active, inactive

Please review the entries below; each comes with its answer.
| compound | labelValue |
| --- | --- |
| Cc1ccc(C(=O)NC2(O)C(=O)c3ccccc3C2=O)cc1C | inactive |
| CCOC(=O)c1sc2nc3c(SCC(=O)O)cc(C(=O)c4cc(F)ccc4O)cn3c(=O)c2c1C | inactive |
| O=C1CCCC2=C1C1(O)C(=O)c3ccccc3C1(O)O2 (stereo not given) | inactive |
| CCOC(=O)C1=C(C)OC2(O)c3ccccc3C(=O)C12O (stereo not given) | inactive |

Identify the outcome logged in this assay for the compound shown: COc1ccc(NC(=O)C2C3CCC(O3)C2C(=O)O)c(OC)c1 (stereo not given)
active

* * *

Listed here: items and their measured inhibition.
Target: Serine/threonine-protein phosphatase 5 (Homo sapiens) (UniProt P53041)
Experiment: blocking PP5 removal of histone phosphate – biochemical, radiolabel, single concentration, PP5 inhibitor project, late-stage follow-up (AID 463223)
Conditions: purified PP5c, 33P-phosphohistone radiolabel assay, scintillation counting, 10 min; at 10 µM; hits give high values
The figure you give is taken to be in %; do not add the unit.

Examples with their reported inhibition follow.
| structureString | inhibition, % |
| --- | --- |
| CCn1c2ccccc2c2cc(NC(=O)COC(=O)c3ccc(NC(=O)CC#N)cc3)ccc21 | -0.66 |
| COc1ccc(OCCCC(=O)Nc2nc(-c3ccccn3)cs2)cc1 | -1.62 |

Return value of inhibition for input O=C(O)c1n[nH]nc1-c1ccccc1 , no commentary.
31.1
